Catalogue of Ratio IC50 readings, one per entry.
Target: Caspase-2 (Homo sapiens) (UniProt P42575)
Sequence (P42575 170-325 limits assumed): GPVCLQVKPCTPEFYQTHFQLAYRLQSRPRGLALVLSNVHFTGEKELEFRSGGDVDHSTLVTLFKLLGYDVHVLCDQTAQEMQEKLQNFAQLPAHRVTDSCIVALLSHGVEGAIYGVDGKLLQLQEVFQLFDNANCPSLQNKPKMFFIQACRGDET
Sequence (P42575 334-452 limits assumed): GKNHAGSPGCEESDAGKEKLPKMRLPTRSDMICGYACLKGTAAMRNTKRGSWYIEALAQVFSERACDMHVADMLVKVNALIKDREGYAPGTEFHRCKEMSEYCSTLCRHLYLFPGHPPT
Assay: Ratio of IC50 for human Myc-DDK tagged caspase-2 expressed in HEK293 T17 cells to IC50 for caspase-2 (amino acids 170 to 452)
Assay type: cell-based
Non-standard residues stand in square brackets, D forms with d. Residues, ends and D or L forms follow the SMILES beside them. ξ: configuration not given here. *: point of attachment. Pro(3S-CH2tBu) = CC(C)(C)C[C@H]1CCN[C@@H]1C(=O)O; Pro(3R-cHex) = O=C(O)[C@H]1NCC[C@@H]1C1CCCCC1; Aspartal(hemiacetal) = O=C1C[C@H](N*)C(O)O1; Pro(3R-Ph) = O=C(O)[C@H]1NCC[C@@H]1c1ccccc1; ξTHIQ1CO(6-Me) = Cc1ccc2c(c1)CCNC2C(=O)O; Pro(3S-OMe) = CO[C@H]1CCN[C@@H]1C(=O)O; Tiq1c(1S) = O=C(O)[C@H]1NCCc2ccccc21; ξDisc = O=C(O)C1NCc2ccccc21; Pip = O=C(O)[C@@H]1CCCCN1
Observable: Ratio IC50

[[record]]
molecule = "CO[C@H]1CCN(C(=O)[C@@H](NC(=O)[C@H](CC(=O)O)NC(=O)[C@@H](NC(C)=O)C(C)C)C(C)C)[C@@H]1C(=O)N[C@H]1CC(=O)OC1O (stereo partly drawn) (Ac-VDV[Pro(3S-OMe)]-{Aspartal(hemiacetal)})"
relation_sign = "="
number = 18

[[record]]
molecule = "CC(=O)N[C@H](C(=O)N[C@@H](CC(=O)O)C(=O)N[C@H](C(=O)N1CC[C@H](OCC(C)C)[C@H]1C(=O)N[C@H]1CC(=O)OC1O)C(C)C)C(C)C (stereo not given in full)"
relation_sign = "="
number = 71

[[record]]
molecule = "CCC(C)O[C@H]1CCN(C(=O)[C@@H](NC(=O)[C@H](CC(=O)O)NC(=O)[C@@H](NC(C)=O)C(C)C)C(C)C)[C@@H]1C(=O)N[C@H]1CC(=O)OC1O (stereo not given in full)"
relation_sign = ">"
number = 121

[[record]]
molecule = "CC(=O)N[C@H](C(=O)N[C@@H](CC(=O)O)C(=O)N[C@H](C(=O)N1CC[C@H](Oc2ncccn2)[C@H]1C(=O)N[C@H]1CC(=O)OC1O)C(C)C)C(C)C (stereo not given in full)"
relation_sign = "="
number = 79

[[record]]
molecule = "CC(=O)N[C@H](C(=O)N[C@@H](CC(=O)O)C(=O)N[C@H](C(=O)N1CCc2ccc(O)cc2C1C(=O)N[C@H]1CC(=O)OC1O)C(C)C)C(C)C (stereo not given in full)"
relation_sign = "="
number = 50

[[record]]
molecule = "CC(=O)N[C@H](C(=O)N[C@@H](CC(=O)O)C(=O)N[C@H](C(=O)N1CC[C@H](CC(C)(C)C)[C@H]1C(=O)N[C@H]1CC(=O)OC1O)C(C)C)C(C)C (stereo partly drawn) (Ac-VDV[Pro(3S-CH2tBu)]-{Aspartal(hemiacetal)})"
relation_sign = "="
number = 65

[[record]]
molecule = "COc1cc2c(cc1OC)C(C(=O)N[C@H]1CC(=O)OC1O)N(C(=O)[C@@H](NC(=O)[C@H](CC(=O)O)NC(=O)[C@@H](NC(C)=O)C(C)C)C(C)C)CC2 (stereo not given in full)"
relation_sign = ">"
number = 45

[[record]]
molecule = "CC(=O)N[C@H](C(=O)N[C@@H](CC(=O)O)C(=O)N[C@H](C(=O)N1CC[C@H](c2ccccc2)[C@H]1C(=O)N[C@H]1CC(=O)OC1O)C(C)C)C(C)C (stereo partly drawn) (Ac-VDV[Pro(3R-Ph)]-{Aspartal(hemiacetal)})"
relation_sign = "="
number = 113

[[record]]
molecule = "CC(=O)N[C@H](C(=O)N[C@@H](CC(=O)O)C(=O)N[C@H](C(=O)N1CC[C@H](c2ccc(C)cc2)[C@H]1C(=O)N[C@H]1CC(=O)OC1O)C(C)C)C(C)C (stereo not given in full)"
relation_sign = ">"
number = 41

[[record]]
molecule = "CC(=O)N[C@H](C(=O)N[C@@H](CC(=O)O)C(=O)N[C@H](C(=O)N1CCc2cc(C)ccc2C1C(=O)N[C@H]1CC(=O)OC1O)C(C)C)C(C)C (stereo not given in full) (Ac-VDV[ξTHIQ1CO(6-Me)]-{Aspartal(hemiacetal)})"
relation_sign = "="
number = 130

[[record]]
molecule = "CC(=O)N[C@H](C(=O)N[C@@H](CC(=O)O)C(=O)N[C@H](C(=O)N1Cc2ccccc2C1C(=O)N[C@H]1CC(=O)OC1O)C(C)C)C(C)C (stereo not given in full) (Ac-VDV[ξDisc]-{Aspartal(hemiacetal)})"
relation_sign = "="
number = 5

[[record]]
molecule = "CC(=O)N[C@H](C(=O)N[C@@H](CC(=O)O)C(=O)N[C@H](C(=O)N1CCC[C@H](OC(C)C)[C@H]1C(=O)N[C@H]1CC(=O)OC1O)C(C)C)C(C)C (stereo not given in full)"
relation_sign = ">"
number = 2

[[record]]
molecule = "CC(=O)N[C@H](C(=O)N[C@@H](CC(=O)O)C(=O)N[C@H](C(=O)N1CCc2ccc(C)cc2C1C(=O)N[C@H]1CC(=O)OC1O)C(C)C)C(C)C (stereo not given in full)"
relation_sign = "="
number = 92

[[record]]
molecule = "CC(=O)N[C@H](C(=O)N[C@@H](CC(=O)O)C(=O)N[C@H](C(=O)N1CCC[C@H]1C(=O)N[C@H]1CC(=O)OC1O)C(C)C)C(C)C (stereo not given in full) (Ac-VDVP-{Aspartal(hemiacetal)})"
relation_sign = "="
number = 15

[[record]]
molecule = "CC(=O)N[C@H](C(=O)N[C@@H](CC(=O)O)C(=O)N[C@H](C(=O)N1CCCC[C@H]1C(=O)N[C@H]1CC(=O)OC1O)C(C)C)C(C)C (stereo not given in full) (Ac-VDV[Pip]-{Aspartal(hemiacetal)})"
relation_sign = "="
number = 13

[[record]]
molecule = "CC(=O)N[C@H](C(=O)N[C@@H](CC(=O)O)C(=O)N[C@H](C(=O)N1CCc2ccccc2[C@H]1C(=O)N[C@H]1CC(=O)OC1O)C(C)C)C(C)C (stereo partly drawn) (Ac-VDV[Tiq1c(1S)]-{Aspartal(hemiacetal)})"
relation_sign = "="
number = 103

[[record]]
molecule = "CC(=O)N[C@H](C(=O)N[C@@H](CC(=O)O)C(=O)N[C@H](C(=O)N1CC[C@H](C2CCCCC2)[C@H]1C(=O)N[C@H]1CC(=O)OC1O)C(C)C)C(C)C (stereo partly drawn) (Ac-VDV[Pro(3R-cHex)]-{Aspartal(hemiacetal)})"
relation_sign = "="
number = 100

[[record]]
molecule = "CC(=O)N[C@H](C(=O)N[C@@H](CC(=O)O)C(=O)N[C@H](C(=O)N[C@@H](C)C(=O)N[C@H]1CC(=O)OC1O)C(C)C)C(C)C (stereo not given in full) (Ac-VDVA-{Aspartal(hemiacetal)})"
relation_sign = "="
number = 29

[[record]]
molecule = "CC(=O)N[C@H](C(=O)N[C@@H](CC(=O)O)C(=O)N[C@H](C(=O)N1CCc2ccc(Br)cc2C1C(=O)N[C@H]1CC(=O)OC1O)C(C)C)C(C)C (stereo not given in full)"
relation_sign = "="
number = 5

[[record]]
molecule = "CC(=O)N[C@H](C(=O)N[C@@H](CC(=O)O)C(=O)N[C@H](C(=O)N1CC[C@H](OC2CCCC2)[C@H]1C(=O)N[C@H]1CC(=O)OC1O)C(C)C)C(C)C (stereo not given in full)"
relation_sign = "="
number = 46

